Biological target: Glutamate NMDA receptor
Test: Inhibition of strychnine-insensitive [3H]glycine binding to the N-methyl-D-aspartate glutamate receptor of synaptic plasma membranes(SPM) prepared from rat forebrain
measuredParameter: Ki

Answered cases to consult:
{"molecule": "O=C(O)Cc1c(CO)[nH]c2cc(Cl)ccc12", "system": "Glutamate NMDA receptor", "value": "> 30 µM"}
{"molecule": "O=C(O)Cc1c(C(=O)O)oc2ccccc12", "system": "Glutamate NMDA receptor", "value": "> 100 µM"}
{"molecule": "O=C(O)c1[nH]c2ccccc2c1CCO", "system": "Glutamate NMDA receptor", "value": "> 30 µM"}
{"molecule": "Cc1ccc2[nH]c(C(=O)O)cc2c1", "system": "Glutamate NMDA receptor", "value": "> 100 µM"}
{"molecule": "CCOC(=O)Cc1c(C(=O)OCCCN(C)C)[nH]c2cc(Cl)ccc12", "system": "Glutamate NMDA receptor", "value": "> 100 µM"}
{"molecule": "CN(C)CCNC(=O)Cc1c(C(=O)NCCN(C)C)[nH]c2cc(Cl)ccc12", "system": "Glutamate NMDA receptor", "value": "> 30 µM"}
{"molecule": "O=C(O)Cc1cc2ccccc2nc1C(=O)O", "system": "Glutamate NMDA receptor", "value": "> 100 µM"}
{"molecule": "CC(C)OC(=O)Cc1c(C(=O)O)[nH]c2cc(Cl)ccc12", "system": "Glutamate NMDA receptor", "value": "3.85 µM"}
{"molecule": "CN(C)C(=O)Cc1c(C(=O)O)[nH]c2cc(Cl)ccc12", "system": "Glutamate NMDA receptor", "value": "> 30 µM"}
{"molecule": "O=C(O)C1Cc2ccccc2N1 (stereo not drawn)", "system": "Glutamate NMDA receptor", "value": "> 30 µM"}

Kindly note the recorded Ki for CN(C)CCCNC(=O)Cc1c(C(=O)O)[nH]c2cc(Cl)ccc12 , which is > 30 µM

Kindly note the recorded Ki for O=C(O)CCCCc1c(C(=O)O)[nH]c2ccccc12 , which is > 100 µM

Kindly note the recorded Ki for O=C(O)Cc1c(C(=O)O)[nH]c2cc(Cl)ccc12 , which is 1.61 µM

###

Biological target: Glutamate NMDA receptor
Experiment: Inhibition of strychnine-insensitive [3H]glycine binding to the N-methyl-D-aspartate glutamate receptor of synaptic plasma membranes(SPM) prepared from rat forebrain
pKi: −log10 of the molar value.
Reported values of pKi for individual entries

Answered cases to consult:
{"chemicalString": "NC(=O)Cc1c(C(=O)O)[nH]c2cc(Cl)ccc12", "pKi": 5.93}
{"chemicalString": "O=C(O)c1cc2cc(Cl)ccc2[nH]1", "pKi": "< 4.00"}
{"chemicalString": "O=C(O)c1cc2cc(Br)ccc2[nH]1", "pKi": "< 4.00"}

Kindly note the recorded pKi for CCCOC(=O)Cc1c(C(=O)O)[nH]c2cc(Cl)ccc12 , which is 5.17

Kindly note the recorded pKi for COc1ccc2[nH]c(C(=O)O)cc2c1 , which is < 4.00

Kindly note the recorded pKi for O=C(O)c1[nH]c2cc(Cl)ccc2c1O , which is < 4.00

###

Reported values of Ki for individual entries
Target: Glutamate NMDA receptor
Test: Inhibition of strychnine-insensitive [3H]glycine binding to the N-methyl-D-aspartate glutamate receptor of synaptic plasma membranes(SPM) prepared from rat forebrain

{"compound": "O=C(O)CC1c2ccccc2OC1C(=O)O (centres undefined)", "value": "> 30 µM"}
{"compound": "O=C(O)c1cc2c(C(=O)O)cccc2[nH]1", "value": "> 100 µM"}
{"compound": "O=C(O)CCCc1c(C(=O)O)[nH]c2ccccc12", "value": "> 100 µM"}

# ---- query compound ----
Kindly note the recorded Ki for O=C(O)c1cc2ccccc2[nH]1 , which is > 100 µM
